System: UO-31
RUN DESCRIPTION: NCI one-dose assay
Type: cell-based, human
ASSAY CONDITIONS: Homo sapiens, UO-31, UO-31, Renal cancer, read-out: Cell growth inhibition %
Method: The National Cancer Institute (NCI), Bethesda, USA, selected the final compounds 6a–j and 7a–j for in vitro anticancer screening. An initial in vitro single-dose anticancer experiment was performed with the entire NCI 60 cell lines derived from nine tumor subpanel cancer cell lines. The results for each compound were illustrated as a mean graph showing the percentage growth of treated cells compared to untreated control cells (see Supplementary Materials). […]
# reported inhibition at 10 µM; entries follow
Output spec: scalar in %, unitless text.

Before answering, review these 3 worked examples.
COMPOUND	MEASUREMENT LABEL	UNIT LABEL	MEAS VALUE
O/N=C(\CSc1nnc(-c2c[nH]c3ccccc23)n1-c1ccccc1)c1ccc(Cl)cc1 [Compound 7j]	inhibition at 10 µM	%	65.6
C=CCn1c(SC/C(=N\O)c2ccc(Br)cc2)nnc1-c1c[nH]c2ccccc12 [Compound 7d]	inhibition at 10 µM	%	38.3
C=CCn1c(SCC(=O)c2ccc(OC)cc2)nnc1-c1c[nH]c2ccccc12 [Compound 6b]	inhibition at 10 µM	%	26.9

Now for another entry.
Please give the measured inhibition at 10 µM for this compound: O/N=C(\CSc1nnc(-c2c[nH]c3ccccc23)n1-c1ccccc1)c1ccc(Br)cc1 [Compound 7i]
96.4

Cited source: paper PMC11859928
